tested on: gastric mucosa; experiment: PD: Gastric Mucosal Integrity Test (gastric mucosal potential difference); type: in vivo, Male Crj:SD rats; set-up: key: 5: Same as the control with no recognizable damage at all.; 4: Though a slight PD-decreasing tendency suggesting a slight possibility of mucosal damage is found, there is no problem.; 3: Though a weak decrease in PD and a possibility of a weak mucosal damage is recognized, there is no substantial problem.; 2: Medium degree of decrease in PD is found and a mucosal damage is recognized.; 1: Heavy degree of decrease in PD is found and a remarkable mucosal damage is recognized; settings: rat, 100 mg/kg into the chamber, 60 minutes
# maps each entry to its PD: change in gastric mucosal potential difference (5 levels)
READOUT LABEL: PD: change in gastric mucosal potential difference (5 levels)

• CC(C)=CCC/C(C)=C/COc1ccc(C(=O)Nc2nnc(SCc3ccccn3)s2)cc1 [Example 14] = 5
• CCN(CC)CCSc1nnc(NC(=O)c2ccc(C(C)(C)C)cc2)s1 [Example 4] = 3
• CCN(CC)CCSc1nnc(NC(=O)c2ccc(C(C)C)cc2)s1 [Example 1] = 3
• CC(C)c1ccc(C(=O)Nc2nnc(SCCN(C(C)C)C(C)C)s2)cc1 [Example 2] = 5
• CCSc1nnc(NC(=O)c2ccc(OC/C=C(\C)CCC=C(C)C)cc2)s1 [Example 15] = 5
• CCN(CC)CCSc1nnc(NC(=O)c2ccc(OC/C=C(\C)CCC=C(C)C)cc2)s1 [Example 10] = 5
• CC(C)=CCC/C(C)=C/COc1ccc(C(=O)Nc2nnc(SCCN3CCCCC3)s2)cc1 [Example 12] = 5

###

Each record here notes measured inhibition at 10 µM.
tested on: isolated gastric fundic gland; assay: CAP: Acid Secretion Inhibition Test in vitro ([^14 C]-aminopyrine uptake); assay type: cell-based, male Japanese White rabbit; settings: Oryctolagus cuniculus, rabbit isolated gastric fundic gland, 10^-5 M, histamine 10^-5 M; read-out: CAP: Acid secretion inhibitory rate
READOUT LABEL: inhibition at 10 µM

* CC(C)=CCC/C(C)=C/COc1ccc(C(=O)Nc2nnc(SCc3ccccn3)s2)cc1 [Example 14] | 45%
* CCN(CC)CCSc1nnc(NC(=O)c2ccc(NC(C)(C)C)cc2)s1 [Example 9] | 2%
* CC(C)c1ccc(C(=O)Nc2nnc(SCCN(C(C)C)C(C)C)s2)cc1 [Example 2] | 100%
* CCN(CC)CCSc1nnc(NC(=O)c2ccc(OC/C=C(\C)CCC=C(C)C)cc2)s1 [Example 10] | 100%
* CC(C)N(CCSc1nnc(NC(=O)c2ccc(C(C)(C)C)cc2)s1)C(C)C [Example 5] | 100%
* CCSc1nnc(NC(=O)c2ccc(OC/C=C(\C)CCC=C(C)C)cc2)s1 [Example 15] | 17%
* CCN(CC)CCSc1nnc(NC(=O)c2ccc(C(C)C)cc2)s1 [Example 1] | 101%
* CCN(CC)CCCSc1nnc(NC(=O)c2ccc(OC/C=C(\C)CCC=C(C)C)cc2)s1 [Example 11] | 100%
* CC(C)=CCC/C(C)=C/COc1ccc(C(=O)Nc2nnc(SCCCN3CCCCC3)s2)cc1 [Example 13] | 100%
* CC(C)=CCC/C(C)=C/COc1ccc(C(=O)Nc2nnc(SCCN3CCCCC3)s2)cc1 [Example 12] | 99%
* CCN(CC)CCSc1nnc(NC(=O)c2cc(C(C)(C)C)cc(C(C)(C)C)c2)s1 [Example 6] | 100%
* CCN(CC)CCSc1nnc(NC(=O)c2ccc(C(C)(C)C)cc2)s1 [Example 4] | 100%
* CCN(CC)CCSc1nnc(NC(=O)c2ccc(OC(C)C)cc2)s1 [Example 7] | 97%
* CCN(CC)CCSc1nnc(NC(=O)c2ccc(OC(C)(C)C)cc2)s1 [Example 8] | 99%
